Give pest or weed control at 250 g/ha for every item shown.
tested on: Avena fatua (AVEFA); assay: Example B post-emergence herbicidal activity, glasshouse pot test; assay type: in vivo; conditions: 312 h, rate 250 g/ha, evaluated after 13 days, read-out: Post-emergence activity AVEFA (100=total damage to plant; 0=no damage to plant)
I'd appreciate it if you wrote the number followed by its unit.

The compound listed as CCc1sc(COc2ccc(Cl)cc2)nc1C1C(=O)[C@@H]2[C@H](C1=O)[C@H]1CC[C@@H]2O1 (stereo partly shown) [Compound T40] shows pest or weed control at 250 g/ha equal to 70%

Input Cc1cc(Br)ccc1-c1nc(C2C(=O)[C@@H]3[C@H](C2=O)[C@H]2CC[C@@H]3O2)c(C)s1 (stereo partly shown) [Compound T39] . Output pest or weed control at 250 g/ha: 100%

Reported pest or weed control at 250 g/ha of Cc1cnc(-c2ccc(Cl)cc2)nc1C1C(=O)[C@@H]2[C@H](C1=O)[C@H]1CC[C@@H]2O1 (stereo partly shown) [Compound T53] : 70%

Sample Cc1sc(-c2ccc(OC(F)F)cc2Cl)nc1C1C(=O)[C@@H]2[C@H](C1=O)[C@H]1CC[C@@H]2O1 (stereo partly shown) [Compound T52] ; pest or weed control at 250 g/ha observed: 100%

Memo: CCc1sc(-c2ccc(Cl)cc2Cl)nc1C1C(=O)[C@@H]2[C@H](C1=O)[C@H]1CC[C@@H]2O1 (stereo partly shown) [Compound T45] , reported pest or weed control at 250 g/ha: 100%

Lab book: pest or weed control at 250 g/ha of Cc1sc(-c2ccc([S+](C)[O-])cc2)nc1C1C(=O)[C@@H]2[C@H](C1=O)[C@H]1CC[C@@H]2O1 (stereo partly shown) [Compound T49] noted as 30%

// recorded pest or weed control at 250 g/ha for CCc1sc(-c2ccc(SC)cc2)nc1C1C(=O)[C@@H]2[C@H](C1=O)[C@H]1CC[C@@H]2O1 (stereo partly shown) [Compound T50] : 90%

###

system: Avena fatua (AVEFA); test: Example B pre-emergence herbicidal activity, glasshouse pot test; format: in vivo; conditions: 312 h, Rate 250 g/ha, evaluated after 13 days, read-out: Pre-Emergence Activity AVEFA (100=total damage to plant; 0=no damage to plant)
If the reported pest or weed control at 250 g/ha equals or exceeds 30%, assign True. If not, assign False.

Q: Decide: is the reported value of pest or weed control at 250 g/ha for CCc1sc(-c2cc(F)c(Cl)cc2Cl)nc1C1C(=O)[C@@H]2[C@H](C1=O)[C@H]1CC[C@@H]2O1 (stereo partly drawn) equal to or greater than 30%?
A: True

Q: Record CC(=O)OC1=C(c2nc(-c3ccc(OC(F)F)cc3F)sc2C)C(=O)[C@H]2[C@@H]1[C@@H]1CC[C@H]2O1 (racemic) ; criterion: pest or weed control at 250 g/ha no lower than 30%. Met?
A: True

Q: hey, is pest or weed control at 250 g/ha for this one >= 30%? Cc1cc(Br)ccc1-c1nc(C2C(=O)[C@@H]3[C@H](C2=O)[C@H]2CC[C@@H]3O2)c(C)s1 (stereo partly drawn)
A: True

Q: Could you verify whether the entry Cc1[se]c(-c2ccc(Cl)cc2)nc1C1C(=O)[C@@H]2[C@H](C1=O)[C@H]1CC[C@@H]2O1 (stereo partly drawn) shows pest or weed control at 250 g/ha of no less than 30%?
A: False

Just for reference, patent US8530667B2 is where these values come from.
